Tested on: HCC-2998 colon
Test: NCI tumour cell line growth inhibition, 48 h
REPORTED METRIC: TGI

- COMPOUND: "CCCCCCCCCCCCCC1=NC(C)(C)CN1C(C)C"
  TGI: "2.74 µM"
- COMPOUND: "COc1ccc(N2C(=O)C(=O)N(c3ccccc3[N+](=O)[O-])C2=S)cc1"
  TGI: "> 100 µM"
- COMPOUND: "CC(CCC=O)CCOCc1ccccc1 (stereo not given)"
  TGI: "> 100 µM"
- COMPOUND: "COc1ccc(-n2cc(-c3cc(OC)c(OC)c(OC)c3)c(C(=O)C(F)(F)F)c2C)cc1"
  TGI: "> 100 µM"
- COMPOUND: "C=C1C(=O)O[C@@H]2C[C@@H]1CC/C(C)=C/CC/C(C)=C/CC[C@@]2(C)O"
  TGI: "28.7 µM"

// returns reported TGI for input COc1ccc(CN2C(=O)/C(=C\C(=O)c3ccc(OCCN4CCCCC4)cc3)c3ccccc32)cc1
5.05 µM

// returns reported TGI for input CN(C(=O)C1=CCC2(CC1)OCCO2)c1ccccc1OS(=O)(=O)C(F)(F)F
> 100 µM

// returns reported TGI for input CN(C)c1ccc(C(C=C2c3ccccc3Sc3ccccc32)=C(C#N)C#N)cc1
> 100 µM

// returns reported TGI for input COc1ccccc1/C(=N\OCCC(=O)O)c1cccs1
> 100 µM

// returns reported TGI for input CNC(=O)N(C)N=NCCCl
> 100 µM

###

Property: GI50; scope: individual molecules
System: NCI-H522 lung
Assay: NCI tumour cell line growth inhibition, 48 h

Example cases with answers are listed next.
- MOLECULE: "O=C1NC(=O)C(c2cnc3ccccn23)=C1c1cn2c3c(cc(F)cc13)CN(C(=O)N1CCCCC1)CC2"
  VALUE MEASURED: "13900 nM"
- MOLECULE: "[Cl][Hg][c]1cc(Br)cc(Br)c1"
  VALUE MEASURED: "493 nM"

Next, consider the following molecule.
// returns reported GI50 for input CCCCCCCCCCCCOC1C(C(COC2OC(C3COC(C)(C)O3)C3OC(C)(C)OC23)NC(=O)Nc2ccc(C(=O)O)cc2)OC2OC(C)(C)OC21 (stereo not drawn)
2560 nM

###

Test system: MDA-MB-435
Assay: NCI tumour cell line growth inhibition, 48 h
REPORTED METRIC: TGI

Example cases with answers are listed next.
- MOLECULE: "COC(=O)CC(C#N)(OP1(=O)OC(c2ccccc2)C(C)N1C)c1ccccc1 (configuration not stated)"
  SYSTEM: "MDA-MB-435"
  TGI: "53.7 µM"
- MOLECULE: "N=C1/C(=C/c2ccc(F)cc2)C(=O)N=C2SC=NN12"
  SYSTEM: "MDA-MB-435"
  TGI: "> 100 µM"
- MOLECULE: "O=C(OC(CNc1cc(=O)n(Cc2ccccc2)c(=O)n1Cc1ccccc1)CN1CCCC1)c1ccccc1 (configuration not stated)"
  SYSTEM: "MDA-MB-435"
  TGI: "> 100 µM"
- MOLECULE: "COc1cc(N(CCC#N)CCC#N)ccc1/C(N=Nc1ccc([N+](=O)[O-])cc1)=N/NC(=O)c1cc(Br)ccc1O"
  SYSTEM: "MDA-MB-435"
  TGI: "> 150 µg/mL"
- MOLECULE: "Cn1nc(N)c2cc([C@@H]3Nc4ccc5[nH]ncc5c4[C@H]4C5CCC(C5)[C@@H]34)ccc21 (some centres not stated)"
  SYSTEM: "MDA-MB-435"
  TGI: "0.437 µM"
- MOLECULE: "CC(C)CCN1c2nc(Nc3cc(F)c(O)c(F)c3)ncc2N(C)C(=O)C1C (configuration not stated)"
  SYSTEM: "MDA-MB-435"
  TGI: "55.8 µM"
- MOLECULE: "N#Cc1nc2ccccc2nc1N1CCN(c2ccc([N+](=O)[O-])cc2)CC1"
  SYSTEM: "MDA-MB-435"
  TGI: "> 100 µM"
- MOLECULE: "COc1ccc(C(C)=O)cc1N1C(=O)C2C(C1=O)C1(c3ccccc3)C(=O)C2(c2ccccc2)C(c2ccc(C)cc2)=C1c1ccc(C)cc1 (configuration not stated)"
  SYSTEM: "MDA-MB-435"
  TGI: "> 100 µM"
- MOLECULE: "O=C(O)CCC(=O)c1ccc[nH]1"
  SYSTEM: "MDA-MB-435"
  TGI: "> 100 µM"
- MOLECULE: "CNC(=O)N(C)N=NCCCl"
  SYSTEM: "MDA-MB-435"
  TGI: "> 100 µM"

State its TGI on MDA-MB-435: CC(=O)O[C@H]1C[C@H]2[C@@H](OC(C)=O)/C=C3\C[C@](C)(C(=O)[C@H](O)C(=C1C)C2(C)C)[C@@H](O)C[C@@H]3OC(=O)[C@H](O)[C@H](c1ccccc1)N(C)C
> 100 µM

State its TGI on MDA-MB-435: CC(C)=CC/C=C(/C)[C@H]1CC[C@]2(C)[C@@H]1CC[C@@H]1[C@@]3(C)CCCNC(C)(C)[C@@H]3CC[C@]12C
3.49 µM
